system: Canis familiaris; assay: Increasing effect on vertebral blood flow in anesthetized dogs compared to the effect of trapidil; type: functional, Canis lupus familiaris
The threshold is inclusive: Vertebral blood flow of exactly 0.6 counts as met; values below receive not met.

Here are 8 compounds together with their reported answers.
1) CNCCN(C)S(=O)(=O)c1cccc2cnccc12; met
2) NCCCNS(=O)(=O)c1cccc2cnccc12; met
3) CCNCCN(CC)S(=O)(=O)c1cccc2cnccc12; met
4) COc1ccc(CNCCNS(=O)(=O)c2cccc3cnccc23)cc1OC; met
5) COc1ccc(CNCCNS(=O)(=O)c2cccc3cnccc23)cc1; not met
6) CCCCCCN(CCN)S(=O)(=O)c1cccc2cnccc12; not met
7) O=S(=O)(c1cccc2cnccc12)N(CCNCc1ccccc1)Cc1ccccc1; met
8) CC(C)N(CCNS(=O)(=O)c1cccc2cnccc12)C(C)C; met

# ---- query compound ----
INPUT: Form field: Vertebral blood flow at least 0.6? Entry: CN(CCNS(=O)(=O)c1cccc2cnccc12)C1CCCCC1
OUTPUT: met
